Documented shrunken log2 fold change across a set of sequences
Tested on: Escherichia coli TOP10;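 also: peptides expressed intracellularly from a pBAD plasmid library in pooled LB shake-flask culture, induced with 0.3% L-arabinose, DNA abundance read by NGS, three biological replicates, DESeq2 with apeglm shrinkage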
Protocol notes: shrunken log2 fold change of peptide-encoding DNA abundance (4.5 h post-induction vs induction); higher = less antimicrobial activity (less host growth inhibition)
Setup conditions: time post-induction: 4.5 h; library: site-saturation at positions 5, 18, 19, 20
Answer with a number only.

Briefly, shrunken log2 fold change measured for RRIRPRPPRLPRPRPRPIEYPRP : 0.0392

Briefly, shrunken log2 fold change measured for RRIRRRPPRLPRPRPRPCVFPRP : 0.022

Briefly, shrunken log2 fold change measured for RRIRHRPPRLPRPRPRPYLEPRP : -0.0394

Briefly, shrunken log2 fold change measured for RRIRGRPPRLPRPRPRPAFDPRP : 0.763

Briefly, shrunken log2 fold change measured for RRIRWRPPRLPRPRPRPWDRPRP : 0.215
